System: Caenorhabditis elegans
Method Description: C. elegans L1 larvae dose-response, 5 day visual viability score (Examples 2 and 7)
Assay type: in vivo
Design: key: Dead: only stiff L1s (no movement); Dead (L4): worms are dead, but at a later larval stage; majority of worms are L1 (based on size); majority of worms are L2 (based on size); majority of worms are L3 (based on size); majority of worms are L4 (based on size); AD: majority of worms are adult; #AD: 5 adult worms or less; B!: sterile (0-25 progeny); B: low broodsize (25-100 progeny); ˜B: moderate broodsize (100-250 progeny); <: reduced broodsize (250-500 progeny); OK: no effect (˜1000+ progeny)
Condition Details: 70 μM (procedure of Example 2); day 5; Table 3
Reported Metric: 5 Day Visual Score V1

>>> df
                                   compound        reported_metric  reading
0  CN(c1cc(Oc2ccc(-c3ccccc3)cc2)ncn1)C1CCCCC1  5 Day Visual Score V1     Dead
1  Fc1ccc(Oc2cc(NCc3ccc(C(F)(F)F)cc3)ncn2)cc1  5 Day Visual Score V1     Dead
2  CC(CCc1ccccc1)Nc1cc(Oc2ccc(-c3ccccc3)cc2)ncn1 (centres unmarked)  5 Day Visual Score V1     Dead
3         Fc1ccc(Oc2cc(NCc3ccccc3F)ncn2)cc1  5 Day Visual Score V1       L1
4        CCCCCCCCCCCCNc1cc(Oc2ccccc2Cl)ncn1  5 Day Visual Score V1     Dead
5  CCC1CCCCN1c1cc(Oc2ccc3oc4ccccc4c3c2)ncn1 (centres unmarked)  5 Day Visual Score V1       L1

Lab note: need 5 Day Visual Score V1 with Caenorhabditis elegans for entry CCC(NC(=O)Nc1ccc(NC(=O)C2CCCO2)cc1)c1cccc(S(N)(=O)=O)c1 (centres unmarked) , please look it up. L1

Now give it for `CC(C)(C)OC(=O)NCc1ccc(-c2cccc(C(=O)Nc3ccc(S(N)(=O)=O)cc3)c2)cc1` too. L1

Then what about the compound `FC(F)(F)c1cccc(CNc2cc(Oc3ccccc3Cl)ncn2)c1` ? L1

Same read-out for `NS(=O)(=O)c1cccc(NC(=O)CCN2CCC(c3cccc4[nH]ccc34)CC2)c1` ? L1

---

Tested on: Caenorhabditis elegans
Method Description: HTS runs (initial and follow-up): mOD, % Run and visual score (Table 3)
Format: in vivo
Condition Details: Initial HTS Run
# Initial HTS Run % Run annotations
# number only, unit % dropped from output

Please state recorded Initial HTS Run % Run (tested on Caenorhabditis elegans) of CCC(C)Nc1cc(Oc2ccc3oc4ccccc4c3c2)ncn1 (centres unmarked) [AKC 349] 127

Now consider Fc1ccc(Oc2cc(N3CCc4ccccc4C3)ncn2)cc1 [AKC 345] and answer again. 135

What about this compound? NS(=O)(=O)c1ccc(NC(=O)CN2CCCC(NC(=O)c3cc4ccccc4o3)C2)cc1 (centres unmarked) [AKC 348] 126

Next compound: CC(CCc1ccccc1)Nc1cc(Oc2ccc(-c3ccccc3)cc2)ncn1 (centres unmarked) [AKC 149] 133

Then what about the compound FC(F)(F)c1ccc(CNc2cc(Oc3cccc(Cl)c3)ncn2)cc1 [AKC 356] ? 139

---

Tested on: Caenorhabditis elegans
Method Description: HTS runs (initial and follow-up): mOD, % Run and visual score (Table 3)
Format: in vivo
Condition Details: Follow-up HTS Run
List of Follow-up HTS Run % Run values.
Use % as the unit, but write only the number.

>>> df
                                   molecule          reported_metric  reading
0  CCC(NC(=O)Nc1ccc(NC(=O)C2CCCO2)cc1)c1cccc(S(N)(=O)=O)c1 (stereo not shown)  Follow-up HTS Run % Run      120
1       CN(Cc1ccccc1)c1cc(Oc2cccc(F)c2)ncn1  Follow-up HTS Run % Run      119
2  CCC1CCCCN1c1cc(Oc2ccc3oc4ccccc4c3c2)ncn1 (stereo not shown)  Follow-up HTS Run % Run      121
3  FC(F)(F)c1cccc(CNc2cc(Oc3ccc(-c4ccccc4)cc3)ncn2)c1  Follow-up HTS Run % Run      118
4  CN(c1cc(Oc2ccc(-c3ccccc3)cc2)ncn1)C1CCCCC1  Follow-up HTS Run % Run      122

What value of Follow-up HTS Run % Run has been reported for the following molecule? `FC(F)(F)c1cccc(CNc2cc(Oc3cccc(Cl)c3)ncn2)c1` 107

Query NS(=O)(=O)c1ccc(NC(=O)CN2CCCC(NC(=O)c3cc4ccccc4o3)C2)cc1 (stereo not shown) next 123

Follow-up entry: `Fc1ccc(Oc2cc(N3CCc4ccccc4C3)ncn2)cc1` 114

Also `Fc1ccc(Oc2cc(NCc3cccc(C(F)(F)F)c3)ncn2)cc1` ? 102

Now consider `FC(F)(F)c1cccc(CNc2cc(Oc3ccccc3Cl)ncn2)c1` . 110

Now this one: CCC1CCCCN1c1cc(Oc2ccc(-c3ccccc3)cc2)ncn1 (stereo not shown) 126

Follow-up entry: `CC(C)(C)OC(=O)N1CCN(c2cc(Oc3ccc(F)cc3)ncn2)CC1` 83

Also need `FC(F)(F)c1ccc(CNc2cc(Oc3cccc(Cl)c3)ncn2)cc1` , thanks. 122
